Reported pIC50 by item:
Experiment: Antiinflammatory activity in human HT-29 cells assessed as inhibition of TNF-alpha induced BCECF-AM labeled human U937 cell adhesion preincubated for 1 hr followed by stimulation with TNF-alpha for 3 hrs followed by further co-incubation with BCECF-AM labeled human U937 cells for 1 hr by fluorescent/light microscopic analysis
Assay type: functional, cell-based
The scale used: pIC50 is minus the common logarithm of the concentration in molar units.

>  <smi>
CCCc1ccc(Nc2nc(C)c(O)c(C)c2C)cc1

>  <pIC50>
6.72

$$$$

Kindly review the next compound as well.
Supply recorded pIC50 for Nc1ccc(O)c(C(=O)O)c1 here.
1.74

src = ChEMBL document CHEMBL3860056
